Quick list: pEC50 per entry.
molecular target: GLP-1R (Homo sapiens); experiment: EC20 GLP-1(9-36) PAM cAMP assay: dose response of compound in the presence of fixed concentration of GLP-1(9-36); conditions: GLP-1R CRE-bla CHO-K1 cells, compound dose response in presence of fixed concentration of GLP-1(9-36)
pEC50: −log10 of the molar value.

[
  {
    "smi": "CCCCCCCOc1ccc(-c2nc(-c3ccc(C[C@H](NC(=O)c4ccc(C(C)(C)C)cc4)C(=O)NCC(=O)O)cc3)no2)cc1",
    "pEC50": "5.60 to 6.10"
  },
  {
    "smi": "CCCCCCCOc1ccc(-c2cnc(-c3ccc(C[C@H](NC(=O)c4ccc(C(C)(C)C)s4)C(=O)N[C@H](CC(=O)O)Cc4ccccc4)cc3)nc2)cc1",
    "pEC50": "5.60 to 6.10"
  },
  {
    "smi": "CCCCCCCn1nnnc1-c1cnc(-c2ccc(C[C@H](NC(=O)c3ccc(C(C)(C)C)cc3)C(=O)O)cc2)nc1",
    "pEC50": "5.00 to 5.30"
  },
  {
    "smi": "CCCCCCCOc1ccc(-c2cnc(-c3ccc(C[C@H](NC(=O)c4ccc(C(C)C)cc4)C(=O)N[C@@H](CCCCN)C(=O)O)cc3)nc2)cc1",
    "pEC50": "> 6.10"
  },
  {
    "smi": "CC(C)n1cc(C(=O)N[C@@H](Cc2ccc(-c3ncc(-c4ccc(C(C)(C)C)cc4)cn3)cc2)C(=O)O)cn1",
    "pEC50": "5.60 to 6.10"
  }
]

Next up:
Lab note: measured pEC50 of CCCCCCCOc1ccc(-c2cnc(-c3ccc(C[C@@H](NC(=O)c4ccc(C(C)(C)C)s4)C(=O)N[C@H](CO)C(=O)O)cc3)nc2)cc1 was > 6.10

###

target: GLP-1R (Homo sapiens, UniProt P43220); assay: EC20 GLP-1(9-36) PAM cAMP assay: dose response of compound in the presence of fixed concentration of GLP-1(9-36); details: GLP-1R CRE-bla CHO-K1 cells, compound dose response in presence of fixed concentration of GLP-1(9-36)
Sequence (P43220 24-463): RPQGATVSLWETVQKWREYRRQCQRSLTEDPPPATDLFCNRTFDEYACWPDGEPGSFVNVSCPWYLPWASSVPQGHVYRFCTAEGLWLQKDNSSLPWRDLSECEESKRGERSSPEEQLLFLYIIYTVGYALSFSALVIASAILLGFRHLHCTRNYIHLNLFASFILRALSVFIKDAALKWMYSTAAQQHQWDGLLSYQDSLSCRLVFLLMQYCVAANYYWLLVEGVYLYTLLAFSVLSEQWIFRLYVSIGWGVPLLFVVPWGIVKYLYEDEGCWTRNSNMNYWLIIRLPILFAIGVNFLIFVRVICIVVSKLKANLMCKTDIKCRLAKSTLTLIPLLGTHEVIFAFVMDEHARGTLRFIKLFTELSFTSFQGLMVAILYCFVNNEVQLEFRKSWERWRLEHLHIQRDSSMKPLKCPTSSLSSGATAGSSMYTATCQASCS
Sequence (P01275 100-127 partner limits assumed): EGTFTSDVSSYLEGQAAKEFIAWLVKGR
observation.type: EC50

In the examples that follow, each entry is paired with its recorded EC50.
[
  {
    "smi": "Cc1ccc(-c2nc(-c3ccc(C[C@H](NC(=O)c4ccc(C(C)(C)C)cc4)C(=O)O)cc3)no2)cc1C",
    "target.of.assay": "GLP-1R (Homo sapiens, UniProt P43220)",
    "EC50": "2500 to 5000 nM"
  },
  {
    "smi": "CCCCCCCOc1ccc(-c2cnc(-c3ccc(C[C@H](NC(=O)c4ccc(C(C)(C)C)s4)C(=O)N4CCC[C@H]4C(=O)O)cc3)nc2)cc1",
    "target.of.assay": "GLP-1R (Homo sapiens, UniProt P43220)",
    "EC50": "800 to 2500 nM"
  }
]

Next up:
Lab note: measured EC50 of CC(C)Nc1ccc(-c2nc(-c3ccc(C[C@H](NC(=O)c4ccc(C(C)(C)C)cc4)C(=O)O)cc3)no2)cc1 was 2500 to 5000 nM

###

Target: GLP-1R (Homo sapiens)
Test: EC20 GLP-1(9-36) PAM cAMP assay: dose response of compound in the presence of fixed concentration of GLP-1(9-36)
Details: GLP-1R CRE-bla CHO-K1 cells, compound dose response in presence of fixed concentration of GLP-1(9-36)
Text: EC20 GLP-1(9-36) PAM cAMP Assay: Dose Response of Compound in the Presence of Fixed Concentration of GLP-1 (9-36). […]
Quick list: EC50 per entry.

In the examples that follow, each entry is paired with its recorded EC50.
[
  {
    "molecule": "CCCCOc1ccc(-c2cnc(-c3ccc(C[C@H](NC(=O)c4ccc(C(C)(C)C)cc4)C(=O)O)cc3)nc2)cc1 [Compound 223]",
    "EC50": "800 to 2500 nM"
  },
  {
    "molecule": "CC(C)(C)c1ccc(C(=O)N[C@@H](Cc2ccc(-c3noc(-c4ccc(S(C)(=O)=O)cc4)n3)cc2)C(=O)O)cc1 [Compound 41]",
    "EC50": "2500 to 5000 nM"
  },
  {
    "molecule": "CCCCCCCOc1ccc(-c2cnc(-c3ccc(C[C@H](NC(=O)c4ccc(C(=O)N(C)C)cc4)C(=O)O)cc3)nc2)cc1 [Compound 128]",
    "EC50": "800 to 2500 nM"
  },
  {
    "molecule": "CC(C)(C)c1ccc(C(=O)N[C@@H](Cc2ccc(-c3noc(-c4ccc(-c5cccc(C#N)c5)cc4)n3)cc2)C(=O)O)cc1 [Compound 28]",
    "EC50": "2500 to 5000 nM"
  }
]

Lab note: measured EC50 of CCCCCCCOc1ccc(-c2cnc(-c3ccc(C[C@H](NC(=O)c4ccc(C(C)(C)C)s4)C(=O)N4CC[C@H](C(=O)O)C4)cc3)nc2)cc1 [Compound 349] was < 800 nM

Lab note: measured EC50 of CCCCCCCOc1ccc(-c2cnc(-c3ccc(C[C@H](NC(=O)Cc4ccccc4)C(=O)O)cc3)nc2)cc1 [Compound 88] was 5000 to 10000 nM

Lab note: measured EC50 of CC(C)(C)c1ccc(-c2cnc(-c3ccc(C[C@H](NC(=O)c4ccc(C(C)(C)C)s4)C(=O)O)cc3)nc2)cc1 [Compound 165] was 800 to 2500 nM

Lab note: measured EC50 of CC(C)(C)c1ccc(C(=O)N[C@@H](Cc2ccc(-c3ncc(-c4ccc5ccccc5c4)cn3)cc2)C(=O)O)cc1 [Compound 226] was 800 to 2500 nM
